Tested on: NOMO1
assay.name: cell viability relative to DMSO control; higher = less cytotoxic
condition.set: HPLM + 10% dialyzed FBS; 48 h; 0.00234 µM
Listing of recorded cell viability by entry.
// units = %; emit number, no label

>>> quantitative_readout("C[C@H]1C[C@H]2[C@@H]3CC[C@](O)(C(=O)CO)[C@@]3(C)C[C@H](O)[C@@H]2[C@@]\\4(C)/C=C\\C(=O)\\C=C14")
110
>>> quantitative_readout("CCCC(C)(COC(N)=O)COC(=O)NC(C)C (centres undefined)")
123
>>> quantitative_readout("C[C@@H]1O[C@@H](O[C@H]2C[C@@H](O)[C@]3(CO)[C@H]4[C@H](O)C[C@]5(C)[C@@H](C6=CC(=O)OC6)CC[C@]5(O)[C@@H]4CC[C@]3(O)C2)[C@H](O)[C@H](O)[C@H]1O")
104
>>> quantitative_readout("CCN(CCO)CCCOc1ccc2c(Nc3cc(CC(=O)Nc4cccc(F)c4)[nH]n3)ncnc2c1")
128
>>> quantitative_readout("CN(C)C1=CC(=CC=C1)C\\2=C\\3C(=O)N(NC3=C/C(=O)N2C)C4=CC=CC=C4Cl")
109
>>> quantitative_readout("COc1cc(Nc2c(C#N)cnc3cc(OCCCN4CCN(C)CC4)c(OC)cc23)c(Cl)cc1Cl")
121
>>> quantitative_readout("N[C@H]2CN(CC12CC1)c3c(F)cc4c(c3Cl)[N@@](C=C(C4=O)C(=O)O)C5C[C@H]5F (some centres undefined)")
110
>>> quantitative_readout("CCc1cc(C(N)=S)ccn1")
117

Note: attention shifts to another entry.
Please report the recorded cell viability for `O=C1CCC[C@@H]2[C@H]3CCCN4CCC[C@@H](CN12)[C@@H]34` .
68.9

* * *

Listing of recorded cell viability by entry.
System: P12-Ichikawa
assay.name: cell viability relative to DMSO control; higher = less cytotoxic
condition.set: RPMI 5 mM glucose + 10% FBS; 48 h; 5.12 µM
// units = %; emit number, no label

API: value(readout= cell viability, system= P12-Ichikawa, query= O=C(O)CCCCC(CCSCc1ccccc1)SCc1ccccc1 (stereo not drawn) )
121

API: value(readout= cell viability, system= P12-Ichikawa, query= `[O-]C(=O)C/1=N/C(=O)NC(=O)N1` )
82.6

* * *

Tested on: NOMO1
assay.name: cell viability relative to DMSO control; higher = less cytotoxic
condition.set: RPMI 5 mM glucose + 10% FBS; 48 h; 0.000781 µM
measured.property: cell viability
Just so you know, I need the unit written after the number.

A selection of reference data follows.
>>> result("O=C(CCCCCCC(=O)Nc1cccnc1)NO")
"83.6%"
>>> result("C=C1C(=O)OC(CCCCCCCC)C1C(=O)O (centres undefined)")
"113%"
>>> result("O=C(CCc1ccc(O)cc1)c1c(O)cc(O)cc1O")
"91.5%"

Please report the recorded cell viability for CCCC(C)(COC(N)=O)COC(=O)NC(C)C (centres undefined) .
116%

* * *

Listing of recorded AUC of viability dose-response curve by entry.
Test system: P12-Ichikawa
assay.name: AUC of viability dose-response curve (% viability x log10 dose units); higher = less sensitive
condition.set: RPMI 5 mM glucose + 10% dialyzed FBS; 48 h
Returns: the value as a bare number; no unit string appended.

>>> quantitative_readout("CC(C)(F)C[C@H](N[C@@H](c1ccc(-c2ccc([S+](C)(=O)[O-])cc2)cc1)C(F)(F)F)C(=O)NC1(C#N)CC1")
474
>>> quantitative_readout("CCOC(=O)N1c2ccc(C(F)(F)F)cc2[C@@H](N(Cc2cc(C(F)(F)F)cc(C(F)(F)F)c2)C(=O)OC)C[C@H]1CC")
471

Note: attention shifts to another entry.
Please report the recorded AUC of viability dose-response curve for N[C@H]2CN(CC12CC1)c3c(F)cc4c(c3Cl)[N@@](C=C(C4=O)C(=O)O)C5C[C@H]5F (stereo partly drawn) .
395
